All values here come from ChEMBL document CHEMBL4190180.

- procedure details: Potentiation of doxorubicin-induced cytotoxicity in mouse L5178 cells assessed as combination index at ED90 in presence of 326:1 ratio of doxorubicin to test compound after 48 hrs by MTT assay
- Format: functional
measurement label: CI
Form field (numeric): enter value without unit.

In plain terms, "CC(C)(F)CC[C@@H]1OC(C)(C)O[C@]1(C)[C@H]1CC[C@@]2(O)C3=CC(=O)[C@@H]4C[C@H]5OC(C)(C)O[C@H]5C[C@]4(C)[C@H]3CC[C@]12C" has a documented CI of 0.91

Note to self: CI recorded for "CC(C)(O)CC[C@@H]1OC(C)(C)O[C@]1(C)[C@H]1CC=C2C3=CC(=O)[C@@H]4C[C@H]5OC(C)(C)O[C@H]5C[C@]4(C)[C@H]3CC[C@@]21C" was 0.73

CI measured on "CC(C)(F)CC[C@@H]1OC(C)(C)O[C@]1(C)[C@H]1CC=C2C3=CC(=O)[C@@H]4C[C@H]5OC(C)(C)O[C@H]5C[C@]4(C)[C@H]3CC[C@@]21C" = 0.9

Recorded result, "CC(C)(F)CC[C@@H]1OC(C)(C)O[C@]1(C)[C@H]1CC[C@@]2(F)C3=CC(=O)[C@@H]4C[C@H]5OC(C)(C)O[C@H]5C[C@]4(C)[C@H]3CC[C@]12C" , CI: 0.52

CI for "CC(C)(O)CC[C@@H]1OC(C)(C)O[C@]1(C)[C@H]1CC[C@@]2(O)C3=CC(=O)[C@@H]4C[C@H]5OC(C)(C)O[C@H]5C[C@]4(C)[C@H]3CC[C@]12C" is 0.51

---

For each record, write down the corresponding CI.
- procedure details: Potentiation of doxorubicin-induced cytotoxicity in mouse L5178 cells assessed as combination index at ED90 in presence of 81.5:1 ratio of doxorubicin to test compound after 48 hrs by MTT assay
- Type: functional

The reported value for "CC(C)(O)CC[C@@H]1OC(C)(C)O[C@]1(C)[C@H]1CC[C@@]2(O)C3=CC(=O)[C@@H]4C[C@H]5OC(C)(C)O[C@H]5C[C@]4(C)[C@H]3CC[C@]12C" in terms of CI is 0.68

For record "CC(C)(F)CC[C@@H]1OC(C)(C)O[C@]1(C)[C@H]1CC[C@@]2(O)C3=CC(=O)[C@@H]4C[C@H]5OC(C)(C)O[C@H]5C[C@]4(C)[C@H]3CC[C@]12C" the listed CI is 0.56

Lookup result for "CC(C)(O)CC[C@@H]1OC(C)(C)O[C@]1(C)[C@H]1CC=C2C3=CC(=O)[C@@H]4C[C@H]5OC(C)(C)O[C@H]5C[C@]4(C)[C@H]3CC[C@@]21C" ; measured CI: 0.82

# CI of "CC(C)(F)CC[C@@H]1OC(C)(C)O[C@]1(C)[C@H]1CC[C@@]2(F)C3=CC(=O)[C@@H]4C[C@H]5OC(C)(C)O[C@H]5C[C@]4(C)[C@H]3CC[C@]12C" = 0.27

Query "CC(C)(F)CC[C@@H]1OC(C)(C)O[C@]1(C)[C@H]1CC=C2C3=CC(=O)[C@@H]4C[C@H]5OC(C)(C)O[C@H]5C[C@]4(C)[C@H]3CC[C@@]21C" yields CI of 0.89
